System: HCT-116
TEST: Cytotoxicity against human HCT116 cells assessed as effect on cell membrane preincubated overnight measured after 4 hrs post stimulation by LDH release assay relative to control
Type: cell-based
COND: hct-116, 4 h
Where a SMILES comes first, the peptide text is derived from it. [ ]: non-standard residue; d: D form. Phe(4-F) = N[C@@H](Cc1ccc(F)cc1)C(=O)O; d2Nal = N[C@H](Cc1ccc2ccccc2c1)C(=O)O

| MOLECULE | Activity |
| --- | --- |
| C[C@H]1NC(=O)[C@H](CCCNC(=N)N)NC(=O)[C@H](Cc2c[nH]c3ccccc23)NC(=O)[C@H](CCCNC(=N)N)NC(=O)[C@H](Cc2ccc(F)cc2)NC(=O)[C@H](CCCNC(=N)N)NC(=O)[C@@H](Cc2ccc3ccccc3c2)NC(=O)[C@H](CCCNC(=N)N)NC(=O)[C@H](CCCNC(=N)N)NC(=O)[C@H](CCC(N)=O)NC1=O (cyclo(RR[d2Nal]R[Phe(4-F)]RWR[dA]Q)) | < 10% |
| CC(=O)N[C@@H](CC(C)C)C(=O)N[C@H](C(=O)N[C@@H](Cc1ccccc1)C(=O)N[C@]1(C)CCCCCC/C=C/CCC[C@@](C)(C(=O)N[C@@H](CO)C(=O)N[C@@H](C)C(=O)N[C@@H](C)C(N)=O)NC(=O)[C@H](CC2CCC2)NC(=O)[C@H](CC(C)C)NC(=O)[C@H](CCC(N)=O)NC(=O)[C@H](Cc2c[nH]c3ccccc23)NC(=O)[C@H](Cc2ccc(O)cc2)NC(=O)[C@H](CCC(=O)O)NC1=O)[C@@H](C)O | < 10% |
| CC(=O)N[C@@H](CCCCN)C(=O)N[C@@H](CCCCN)C(=O)N[C@@H](CCCNC(=N)N)C(=O)N[C@@H](Cc1ccc(O)cc1)C(=O)N[C@@H](CO)C(=O)N[C@@H](CCCNC(=N)N)C(=O)NC(C)(C)C(=O)N[C@@H](CCC(N)=O)C(=O)N[C@@H](CC(C)C)C(=O)N[C@@H](CC(C)C)C(=O)NC(C)(C)C(=O)N[C@@H](CC(C)C)C(N)=O | < 10% |
| CC[C@H](C)[C@H](NC(=O)[C@]1(C)CCC/C=C/CCC[C@](C)(NC(=O)CNC(=O)[C@H](Cc2ccccc2)NC(=O)[C@H](Cc2ccccc2)NC(=O)[C@H](CCCNC(=N)N)NC(=O)[C@H](CCCNC(=N)N)NC(C)=O)C(=O)N[C@@H](Cc2ccc(O)cc2)C(=O)N[C@@H](CC(C)C)C(=O)N[C@@H]([C@@H](C)O)C(=O)N1)C(=O)N[C@@H](CC(C)C)C(=O)N[C@@H](CCCCN)C(=O)N[C@H](C(=O)N[C@@H](CCC(=O)O)C(=O)N[C@@H](CCC(=O)O)C(=O)NCC(=O)N[C@@H](CC(N)=O)C(N)=O)[C@@H](C)O | < 10% |
